As shown below, each of these molecules has a reported IC50 value.
- target-entity: AR (Homo sapiens, UniProt P10275, T878A)
- Construct: into the androgen-dependent PCa cells (LNCaP); endogenous in cells; host or cells: LNCaP-ARR2PB-eGFP
- Sequence (P10275 1-920 T878A): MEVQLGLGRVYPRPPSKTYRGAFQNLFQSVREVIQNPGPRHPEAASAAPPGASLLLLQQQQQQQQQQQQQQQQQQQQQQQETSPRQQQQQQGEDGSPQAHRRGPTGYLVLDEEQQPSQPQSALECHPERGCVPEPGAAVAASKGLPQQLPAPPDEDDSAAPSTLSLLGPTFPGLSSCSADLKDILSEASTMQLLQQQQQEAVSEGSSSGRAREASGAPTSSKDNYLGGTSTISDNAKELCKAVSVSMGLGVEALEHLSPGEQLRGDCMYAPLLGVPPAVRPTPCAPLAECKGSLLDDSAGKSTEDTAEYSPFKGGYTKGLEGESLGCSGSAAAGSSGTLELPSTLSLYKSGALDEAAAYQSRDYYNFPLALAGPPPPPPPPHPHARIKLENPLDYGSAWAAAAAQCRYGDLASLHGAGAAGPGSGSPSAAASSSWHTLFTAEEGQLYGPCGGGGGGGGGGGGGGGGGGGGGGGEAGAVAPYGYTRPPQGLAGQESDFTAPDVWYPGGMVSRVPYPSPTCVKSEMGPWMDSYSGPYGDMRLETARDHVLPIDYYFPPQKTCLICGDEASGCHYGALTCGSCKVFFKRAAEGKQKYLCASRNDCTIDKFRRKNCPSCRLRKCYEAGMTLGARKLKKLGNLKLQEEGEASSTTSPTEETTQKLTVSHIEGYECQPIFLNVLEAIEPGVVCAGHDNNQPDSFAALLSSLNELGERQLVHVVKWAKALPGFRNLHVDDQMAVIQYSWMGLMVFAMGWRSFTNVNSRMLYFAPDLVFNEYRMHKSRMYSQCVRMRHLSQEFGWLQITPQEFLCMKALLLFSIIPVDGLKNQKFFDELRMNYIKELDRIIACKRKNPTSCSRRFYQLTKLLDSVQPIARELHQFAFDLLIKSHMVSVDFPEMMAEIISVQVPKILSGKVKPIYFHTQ
- assay-procedure: AR transcriptional activity, LNCaP-ARR2PB-eGFP reporter cells
- Format: cell-based
- condition-context: read-out: IC50 AR transcriptional activities
Quick note: unit goes after the number.

Completed entries (count: 3):
CC(Cc1nsc(NC(=O)c2coc(-c3cccc(C(F)(F)F)c3)c2)n1)=C(F)F [Compound B-30]: 4.93 µM
COC(C)Cc1nsc(NC(=O)c2cc(-c3cccc(C(F)(F)F)c3)oc2C)n1 (centres unmarked) [Compound A-61]: 3.82 µM
CC(=O)Cc1nsc(NC(=O)c2cc(-c3cccc(N)c3)oc2C)n1 [Compound A-24]: 1.62 µM

So what does the record say about IC50 for COc1cccc(-c2cc(C(=O)Nc3nc(CC(C)N4CCCCC4)ns3)c(C(F)(F)F)o2)c1 (centres unmarked) [Compound E-9] ?
5.29 µM

So what does the record say about IC50 for Cc1oc(-c2cccc(C#N)c2)cc1C(=O)Nc1nc(CC(C)N2CCN(C)CC2)ns1 (centres unmarked) [Compound A-56] ?
0.84 µM

src = patent US20240376091A1
